Source: the Immune Epitope Database (IEDB)

TARGET OF ASSAY: HLA-B*51:01
EXPERIMENT NOTES: IEDB peptide-MHC binding, purified MHC/direct/fluorescence; filed as Kd, often an IC50 or EC50 that approximates it; bounds were set here for any values at or beyond the usual limits of such assays
STUDY CONDITIONS: source organism: Escherichia coli O157:H7
QUANTITY NAME: Kd

IN: Reported Kd for LPQRHHIML : what is it?
OUT: ≥ 20 µM

----------
TARGET OF ASSAY: HLA-A*02:19
EXPERIMENT NOTES: IEDB peptide-MHC binding, purified MHC/direct/fluorescence; filed as Kd, often an IC50 or EC50 that approximates it; bounds were set here for any values at or beyond the usual limits of such assays
STUDY CONDITIONS: source organism: Mammarenavirus machupoense
QUANTITY NAME: Kd

IN: I have this sequence here, LITEQFLCY , and I need its recorded Kd.
OUT: ≥ 20 µM
